Method Description: p53 small molecule agonists, cell-based qHTS assay: qHTS cell viability counter screen (AID 1963581); note: % is set by controls: 0 for no effect and ±100 for the full control effect; nearly all actives have a fitted effect of over 45% in size
Settings: p53RE-bla HCT-116 viability, ATP luminescence, 16 h; series mostly up to 66 µM
Results filed as inconclusive are left out. Activity calls are given as the source filed them. Calls come from the whole dose curve.
Value Kind: activity change, negative = cytotoxicity

{"Compound": "CCOc1ccc2c(c1)C(C)=CC(C)(C)N2", "Value Kind": "activity change, negative = cytotoxicity", "Reported Value": "inactive"}
{"Compound": "NS(=O)(=O)c1cc2c(cc1Cl)NC(C1CC3C=CC1C3)NS2(=O)=O (configuration not stated)", "Value Kind": "activity change, negative = cytotoxicity", "Reported Value": "inactive"}
{"Compound": "CC1(C)C(O)C(C)(C)C1O (configuration not stated)", "Value Kind": "activity change, negative = cytotoxicity", "Reported Value": "inactive"}
{"Compound": "CCN(CC)c1ccc(C=O)c(O)c1", "Value Kind": "activity change, negative = cytotoxicity", "Reported Value": "inactive"}
{"Compound": "C=CCCC", "Value Kind": "activity change, negative = cytotoxicity", "Reported Value": "inactive"}
{"Compound": "CCC(=O)OC", "Value Kind": "activity change, negative = cytotoxicity", "Reported Value": "inactive"}
{"Compound": "CC1(C)O[C@H]2CC(=O)OC[C@]23[C@H]2CC[C@@]4(C)[C@H](c5ccoc5)OC(=O)[C@H]5O[C@]54[C@]2(C)C(=O)C[C@@H]13", "Value Kind": "activity change, negative = cytotoxicity", "Reported Value": "inactive"}

====

Target Or System: Beta-2 adrenergic receptor (Homo sapiens) (UniProt P07550)
Sequence (P07550 whole entry, looked up): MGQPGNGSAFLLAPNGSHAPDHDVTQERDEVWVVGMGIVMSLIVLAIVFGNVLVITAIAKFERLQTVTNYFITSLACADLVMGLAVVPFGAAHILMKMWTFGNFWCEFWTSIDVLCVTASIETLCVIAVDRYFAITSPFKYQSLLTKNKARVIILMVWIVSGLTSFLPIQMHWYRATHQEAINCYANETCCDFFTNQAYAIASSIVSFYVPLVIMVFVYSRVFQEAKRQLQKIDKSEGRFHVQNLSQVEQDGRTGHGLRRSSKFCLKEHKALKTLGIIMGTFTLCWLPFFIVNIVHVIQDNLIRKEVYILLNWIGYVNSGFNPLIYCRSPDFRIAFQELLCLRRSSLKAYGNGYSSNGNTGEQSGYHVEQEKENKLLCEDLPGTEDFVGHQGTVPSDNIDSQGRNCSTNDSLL
Method Description: Adrenergic beta2 receptor (ADRB2) small molecule antagonists, cell-based qHTS assay (AID 1963592); note: % is set by controls: 0 for no effect and ±100 for the full control effect; nearly all actives have a fitted effect of over 50% in size
Settings: CHO-ADRB2 cells, isoproterenol-stimulated cAMP HTRF ratio, 0.5 h; series mostly up to 92.4 µM
Inconclusive results are not listed. Active and inactive are the calls of the source. The call rests on the fitted dose curve.
Value Kind: activity change, negative = inhibition

{"Molecule": "O=C[C@H](O)[C@@H](O)[C@H](O)[C@H](O)CO", "Reported Value": "inactive"}
{"Molecule": "CCCCCCCCOCCC#N", "Reported Value": "inactive"}
{"Molecule": "CCCCC(CC)COCCO (stereo not drawn)", "Reported Value": "inactive"}
{"Molecule": "CC(C)(C)CC(C)(C)c1ccc(Nc2ccc(C(C)(C)CC(C)(C)C)cc2)cc1", "Reported Value": "-0.838% [at 8.39 µM] (inactive)"}
{"Molecule": "CNC1(C)C2CCC(C2)C1(C)C (stereo not drawn)", "Reported Value": "inactive"}
{"Molecule": "CCCOCCO", "Reported Value": "inactive"}
{"Molecule": "CCOC(=O)c1ccc(N)cc1", "Reported Value": "inactive"}
{"Molecule": "O=C(O)c1cc(-c2ccccc2)nc2ccccc12", "Reported Value": "inactive"}
{"Molecule": "O=C(Oc1ccccc1)c1ccccc1", "Reported Value": "inactive"}
{"Molecule": "CC1(C)O[C@H]2CC(=O)OC[C@]23[C@H]2CC[C@@]4(C)[C@H](c5ccoc5)OC(=O)[C@H]5O[C@]54[C@]2(C)C(=O)C[C@@H]13", "Reported Value": "inactive"}
{"Molecule": "CCCCC(C)C(=O)O (stereo not drawn)", "Reported Value": "inactive"}
{"Molecule": "CCc1cnc(C(=O)O)c(C(=O)O)c1", "Reported Value": "inactive"}
{"Molecule": "CC(C)C(=O)OC(=O)C(C)C", "Reported Value": "inactive"}
